- Tested on: Rel-1
- assay explanation: Whole plant sugarbeet response to postemergence ALS-inhibiting herbicides
- Assay type: in vivo, Beta vulgaris L.
- measurement setup: Rel-1 whole plant, herbicide applied postemergence
measurement kind: I50 (g ha^-1)
Your answer is read as g ha^-1, so omit the unit and give the number.

GET /value?item= COc1nc(C)nc(NC(=O)NS(=O)(=O)c2ccccc2Cl)n1 [Chlorsulfuron] &field=I50 returns 0.07

GET /value?item= COCc1cnc(C2=NC(C)(C(C)C)C(=O)N2)c(C(=O)O)c1 (stereo not shown) [AC299,263] &field=I50 returns 1.1

GET /value?item= CCc1cnc(C2=NC(C)(C(C)C)C(=O)N2)c(C(=O)O)c1 (stereo not shown) [Imazethapyr] &field=I50 returns 0.5

GET /value?item= Cc1cc(C)nc(NC(=O)NS(=O)(=O)c2ccccc2C(=O)O)n1 [Sulfometuron] &field=I50 returns 0.2
